Target: mouse melanocortin-3 receptor (mouse, UniProt P33033 1-323)
Sequence (P33033 whole entry): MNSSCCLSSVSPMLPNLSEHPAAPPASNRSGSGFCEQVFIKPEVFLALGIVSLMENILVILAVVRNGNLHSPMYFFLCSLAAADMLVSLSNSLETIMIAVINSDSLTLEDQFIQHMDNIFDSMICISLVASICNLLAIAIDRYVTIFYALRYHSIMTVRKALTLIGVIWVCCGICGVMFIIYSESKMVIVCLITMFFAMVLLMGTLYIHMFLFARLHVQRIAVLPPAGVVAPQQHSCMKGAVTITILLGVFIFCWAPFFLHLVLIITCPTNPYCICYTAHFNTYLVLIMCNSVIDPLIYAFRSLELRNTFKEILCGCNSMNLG
Experiment: cell-based or functional assay
Measured antagonist pA2 (Schild, agonist NDP-MSH), listed per entry for reference.
No unit in the answer, please; the number alone is enough.

Previously resolved entries follow.
PRFFXAFP (head-to-tail cyclic; DArg at 2; Dap at 5; DPro at 8) [c[Pro-DArg-Phe-Phe-Dap-Ala-Phe-DPro]]: 5.7
PRFFXAFP (head-to-tail cyclic; DPhe at 3; Dap at 5; DPro at 8) [c[Pro-Arg-DPhe-Phe-Dap-Ala-Phe-DPro]]: 5.92
PRFFXAFP (head-to-tail cyclic; DArg at 2; DPhe at 4; Dap at 5; DPro at 8) [c[Pro-DArg-Phe-DPhe-Dap-Ala-Phe-DPro]]: 5.7
PRFFXAFP (head-to-tail cyclic; DArg at 2; DPhe at 3; Dap at 5; DPro at 8) [c[Pro-DArg-DPhe-Phe-Dap-Ala-Phe-DPro]]: 6

# input I'd like to know its antagonist pA2 (Schild, agonist NDP-MSH). The binder in question is PRFFXAFP (head-to-tail cyclic; DPhe at 3 and 4; Dap at 5; DPro at 8) [c[Pro-Arg-DPhe-DPhe-Dap-Ala-Phe-DPro]]
# output 5.7
